- tested system: MetAP-2 (Homo sapiens)
pIC50: −log10 of the molar value.
Examples of compounds with documented pIC50 follow.

Solved cases (5 shown):
compound=CN(c1cccc(N2CC[C@@](O)(C(=O)NCc3cc(F)cc(Cl)c3)C2=O)c1)S(C)(=O)=O tested_system="MetAP-2 (Homo sapiens)" value_reported="5.00 to 6.00"
compound=O=C1CCc2cc(N3CC[C@](O)(C(=O)NCCc4cc(F)cc(Cl)c4)C3=O)ccc2N1 tested_system="MetAP-2 (Homo sapiens)" value_reported="6.00 to 8.00"
compound=O=C(NCCO)c1cccc(N2CC[C@](O)(C(=O)NCc3cc(F)cc(Cl)c3)C2=O)c1 tested_system="MetAP-2 (Homo sapiens)" value_reported="6.00 to 8.00"
compound=NC(=O)Cn1cc(N2CC[C@](O)(C(=O)NCc3cc(F)cc(Cl)c3)C2=O)cn1 tested_system="MetAP-2 (Homo sapiens)" value_reported="6.00 to 8.00"
compound="O=C(CN1CCC(O)(C(=O)NCc2cc(F)cc(Cl)c2)C1=O)Nc1ccccc1 (centres unmarked)" tested_system="MetAP-2 (Homo sapiens)" value_reported="5.00 to 6.00"

Query block: What reported pIC50 corresponds to O=C(NCc1ccc(F)cc1)[C@]1(O)CCCN(Cc2cccc(F)c2F)C1=O on MetAP-2 (Homo sapiens)?
Result block: < 5.00

Query block: What reported pIC50 corresponds to O=C1N(c2ccccc2)CCCC1(O)CNCc1cc(F)cc(Cl)c1 (centres unmarked) on MetAP-2 (Homo sapiens)?
Result block: 6.00 to 8.00

Query block: What reported pIC50 corresponds to O=C(NCc1cc(F)cc(Cl)c1)C1(O)CCN(C[C@H]2CC[C@H](C(=O)O)CC2)C1=O (some centres unmarked) on MetAP-2 (Homo sapiens)?
Result block: 5.00 to 6.00

Query block: What reported pIC50 corresponds to O=C(c1cccc(N2CC[C@](O)(C(=O)NCc3cc(F)cc(Cl)c3)C2=O)c1)N1CCCC1 on MetAP-2 (Homo sapiens)?
Result block: 6.00 to 8.00

Query block: What reported pIC50 corresponds to O=C(NCc1cc(F)cc(Cl)c1)C1(O)CCN(Cc2nc3ccccc3s2)C1=O (centres unmarked) on MetAP-2 (Homo sapiens)?
Result block: 6.00 to 8.00

Query block: What reported pIC50 corresponds to CNC(=O)c1cc2cc(N3CC[C@@](O)(C(=O)NCc4cc(F)cc(Cl)c4)C3=O)ccc2[nH]1 on MetAP-2 (Homo sapiens)?
Result block: < 5.00

###

- tested system: MetAP-2 (Homo sapiens, UniProt P50579)
- Sequence (P50579 whole entry, species assumed): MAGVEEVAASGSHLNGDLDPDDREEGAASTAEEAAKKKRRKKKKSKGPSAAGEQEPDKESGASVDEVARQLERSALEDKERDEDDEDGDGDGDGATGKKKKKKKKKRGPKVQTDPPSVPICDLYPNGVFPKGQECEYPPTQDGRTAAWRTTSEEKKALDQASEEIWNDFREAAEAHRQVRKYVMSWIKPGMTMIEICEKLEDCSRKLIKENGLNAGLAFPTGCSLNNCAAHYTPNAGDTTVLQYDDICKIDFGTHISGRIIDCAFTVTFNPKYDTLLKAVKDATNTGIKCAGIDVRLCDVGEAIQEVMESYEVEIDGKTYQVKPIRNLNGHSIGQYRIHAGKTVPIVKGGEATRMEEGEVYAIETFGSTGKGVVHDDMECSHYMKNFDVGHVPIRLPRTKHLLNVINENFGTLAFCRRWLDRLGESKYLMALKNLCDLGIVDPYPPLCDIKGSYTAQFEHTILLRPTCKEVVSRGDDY
- assay details: MetAP-2 activity measurement (coupled enzymatic reactions, Met-Arg-Ser substrate, dianisidine detection at 450 nm)
- Format: biochemical
- experimental conditions: Inhibition of MetAP-2; read-out: IC50 enzyme
parameter: IC50

Solved cases (7 shown):
molecule="O=C1CCc2cc(N3CCC(O)(C(=O)NCCc4cc(F)cc(F)c4)C3=O)ccc2N1 (centres unmarked)" value_reported="10 to 1000 nM"
molecule="O=C1N(Cc2ccccc2)CCC1(O)C(=O)N1Cc2ccccc2C1 (centres unmarked)" value_reported="> 10000 nM"
molecule=O=C1N(Cc2ccccc2)CCC[C@]1(O)CNCc1cc(F)cc(Cl)c1 value_reported="10 to 1000 nM"
molecule="O=C1CCc2c(ccc(N3CCC(O)(C(=O)NCc4cc(F)cc(Cl)c4)C3=O)c2F)N1 (centres unmarked)" value_reported="10 to 1000 nM"
molecule=N#Cc1c[nH]c2ccc(N3CC[C@](O)(C(=O)NCc4cc(F)cc(Cl)c4)C3=O)cc12 value_reported="10 to 1000 nM"
molecule="NC(=O)CN1CCC(O)(C(=O)NCc2cc(F)cc(Cl)c2)C1=O (centres unmarked)" value_reported="1000 to 10000 nM"
molecule="CCOC(=O)C1CCCC(N2CCC(O)(C(=O)NCc3cc(F)cc(Cl)c3)C2=O)C1 (centres unmarked)" value_reported="1000 to 10000 nM"

Query block: What reported IC50 corresponds to N#CCn1cc(N2CC[C@](O)(C(=O)NCc3cc(F)cc(Cl)c3)C2=O)cn1 on MetAP-2 (Homo sapiens, UniProt P50579)?
Result block: 10 to 1000 nM

###

Measurement record for MetAP-2 (Homo sapiens); quantity recorded: pIC50.
pIC50: −log10 of the molar value.

Solved cases (3 shown):
molecule="O=C1CCc2cc(N3CCC(O)(C(=O)NCc4cccc(F)c4Cl)C3=O)ccc2N1 (stereo not shown) [A196]" value_reported="6.00 to 8.00"
molecule="O=C(NCCc1cccc(F)c1)[C@@]1(O)CCN(c2ccc3[nH]ccc3c2)C1=O [B10]" value_reported="6.00 to 8.00"
molecule="O=C(NCc1cc(F)cc(Cl)c1)[C@@]1(O)CCN(c2ccc3[nH]cc(C(F)(F)F)c3c2)C1=O [B74]" value_reported="6.00 to 8.00"

Query block: What reported pIC50 corresponds to NC(=O)c1cccc(NC(=O)c2cccc(N3CCC(O)(C(=O)NCc4cc(F)cc(Cl)c4)C3=O)c2)c1 (stereo not shown) [A69] on MetAP-2 (Homo sapiens)?
Result block: 6.00 to 8.00

Query block: What reported pIC50 corresponds to CC(=O)N1CC[C@@H](N2CCC(O)(C(=O)NCc3cc(F)cc(Cl)c3)C2=O)C1 (stereo partly shown) [A291] on MetAP-2 (Homo sapiens)?
Result block: 5.00 to 6.00

Query block: What reported pIC50 corresponds to NCCNC(=O)c1cc2cc(N3CC[C@](O)(C(=O)NCc4cc(F)cc(Cl)c4)C3=O)ccc2[nH]1 [B132] on MetAP-2 (Homo sapiens)?
Result block: 6.00 to 8.00

Query block: What reported pIC50 corresponds to O=C(NCc1ccccn1)[C@]1(O)CCCN(Cc2cccc(F)c2F)C1=O [A260] on MetAP-2 (Homo sapiens)?
Result block: < 5.00

Query block: What reported pIC50 corresponds to Nc1ccccc1NC(=O)c1cc2cc(N3CC[C@](O)(C(=O)NCc4cc(F)cc(Cl)c4)C3=O)ccc2[nH]1 [B129] on MetAP-2 (Homo sapiens)?
Result block: 6.00 to 8.00

Query block: What reported pIC50 corresponds to O=C1CCc2cc(N3CC[C@@](O)(C(=O)NCc4cccc(F)c4)C3=O)ccc2N1 [B57] on MetAP-2 (Homo sapiens)?
Result block: < 5.00

###

Measurement record for MetAP-2 (Homo sapiens, UniProt P50579); quantity recorded: IC50.

compound=COc1ccc(CN2CC[C@@](O)(C(=O)NCc3cc(F)cc(Cl)c3)C2=O)cc1 parameter=IC50 value_reported="> 10000 nM"

Query block: What reported IC50 corresponds to CCS(=O)(=O)Nc1cccc(N2CC[C@@](O)(C(=O)NCc3cc(F)cc(Cl)c3)C2=O)c1 on MetAP-2 (Homo sapiens, UniProt P50579)?
Result block: 1000 to 10000 nM

Query block: What reported IC50 corresponds to Cc1nnc(CN2CCC(O)(C(=O)NCc3cc(F)cc(Cl)c3)C2=O)o1 (stereo not shown) on MetAP-2 (Homo sapiens, UniProt P50579)?
Result block: 1000 to 10000 nM

Query block: What reported IC50 corresponds to O=C(NCc1cc(F)cc(Cl)c1)[C@]1(O)CCN(OCc2ccccc2)C1=O on MetAP-2 (Homo sapiens, UniProt P50579)?
Result block: > 10000 nM

Query block: What reported IC50 corresponds to C=C(Cc1ccccc1)C(=O)[C@]1(O)CCN(c2ccccc2)C1=O on MetAP-2 (Homo sapiens, UniProt P50579)?
Result block: > 10000 nM

###

Measurement record for MetAP-2 (Homo sapiens, UniProt P50579); quantity recorded: pIC50.
pIC50: −log10 of the molar value.

Solved cases (10 shown):
compound="COc1ccc(CN2CCC(O)(C(=O)NCc3cc(F)cc(Cl)c3)C2=O)cc1 (centres unmarked)" value_reported="6.00 to 8.00"
compound=NC(=O)c1ccc(F)c(N2CC[C@](O)(C(=O)NCc3cc(F)cc(Cl)c3)C2=O)c1 value_reported="6.00 to 8.00"
compound="Cc1ccc(CN2CCC(O)(C(=O)NCc3cc(F)cc(Cl)c3)C2=O)n1C (centres unmarked)" value_reported="5.00 to 6.00"
compound=NCCOCCOCCNC(=O)c1cc2cc(N3CC[C@](O)(C(=O)NCc4cc(F)cc(Cl)c4)C3=O)ccc2[nH]1 value_reported="6.00 to 8.00"
compound=Cc1cc2cc(N3CC[C@](O)(C(=O)NCc4cc(F)cc(Cl)c4)C3=O)cnc2[nH]1 value_reported="6.00 to 8.00"
compound="O=C(NCc1cc(F)cc(Cl)c1)C1(O)CCN(Cc2cc[nH]n2)C1=O (centres unmarked)" value_reported="6.00 to 8.00"
compound="NC(=O)c1cc(C(N)=O)cc(N2CCC(O)(C(=O)NCc3cc(F)cc(Cl)c3)C2=O)c1 (centres unmarked)" value_reported="5.00 to 6.00"
compound=O=C(NCc1cc(F)cc(Cl)c1)[C@@]1(O)CCN(c2ccc3[nH]c(=O)sc3c2)C1=O value_reported="6.00 to 8.00"
compound=O=C1COc2cc(N3CC[C@](O)(C(=O)NCc4cc(F)cc(Cl)c4)C3=O)ccc2N1 value_reported="6.00 to 8.00"
compound=O=C(c1cccc(N2CC[C@@](O)(C(=O)NCc3cc(F)cc(Cl)c3)C2=O)c1)N1CCOCC1 value_reported="< 5.00"

Query block: What reported pIC50 corresponds to CCC(=O)Nc1ccc(N2CC[C@@](O)(C(=O)NCc3cc(F)cc(Cl)c3)C2=O)cn1 on MetAP-2 (Homo sapiens, UniProt P50579)?
Result block: 5.00 to 6.00

Query block: What reported pIC50 corresponds to O=C(NCCO)c1cccc(N2CC[C@@](O)(C(=O)NCc3cc(F)cc(Cl)c3)C2=O)c1 on MetAP-2 (Homo sapiens, UniProt P50579)?
Result block: < 5.00

Query block: What reported pIC50 corresponds to O=C(NCc1ccc(F)cc1)[C@@]1(O)CCCN(Cc2cccc(F)c2F)C1=O on MetAP-2 (Homo sapiens, UniProt P50579)?
Result block: 5.00 to 6.00

Query block: What reported pIC50 corresponds to CNC(=O)c1cccc(N2CC[C@@](O)(C(=O)NCc3cc(F)cc(Cl)c3)C2=O)c1 on MetAP-2 (Homo sapiens, UniProt P50579)?
Result block: < 5.00

Source: patent US10093623B2
